biological target: human FGFR1c + KLB receptor complex on HEK293 iLite FGF21 reporter cells (human, UniProt P11362 22-822; Q86Z14 1-1044); assay: cell-based or functional assay
Sequence (P11362 22-822, chain 1 of 2): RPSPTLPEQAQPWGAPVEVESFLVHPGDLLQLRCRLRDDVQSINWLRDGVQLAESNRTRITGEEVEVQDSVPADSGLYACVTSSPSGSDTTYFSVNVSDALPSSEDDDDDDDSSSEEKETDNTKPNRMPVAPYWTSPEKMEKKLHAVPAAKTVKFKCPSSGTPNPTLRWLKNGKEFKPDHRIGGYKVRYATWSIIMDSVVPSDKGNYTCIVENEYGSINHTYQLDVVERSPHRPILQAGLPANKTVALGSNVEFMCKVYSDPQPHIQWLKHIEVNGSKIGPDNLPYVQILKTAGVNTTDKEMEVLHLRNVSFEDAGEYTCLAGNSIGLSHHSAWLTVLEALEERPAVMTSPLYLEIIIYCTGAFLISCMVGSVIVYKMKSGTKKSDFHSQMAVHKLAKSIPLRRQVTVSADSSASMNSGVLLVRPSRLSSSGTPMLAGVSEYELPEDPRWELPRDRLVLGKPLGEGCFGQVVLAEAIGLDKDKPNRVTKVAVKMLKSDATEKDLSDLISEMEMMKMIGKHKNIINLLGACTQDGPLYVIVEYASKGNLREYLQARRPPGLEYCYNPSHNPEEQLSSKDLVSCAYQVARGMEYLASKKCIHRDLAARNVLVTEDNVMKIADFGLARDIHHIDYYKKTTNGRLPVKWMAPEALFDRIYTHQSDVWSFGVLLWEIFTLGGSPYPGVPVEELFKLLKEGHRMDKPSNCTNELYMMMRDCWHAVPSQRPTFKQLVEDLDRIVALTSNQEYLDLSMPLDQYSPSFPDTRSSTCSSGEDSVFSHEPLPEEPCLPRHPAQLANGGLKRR
Sequence (Q86Z14 whole entry, chain 2 of 2): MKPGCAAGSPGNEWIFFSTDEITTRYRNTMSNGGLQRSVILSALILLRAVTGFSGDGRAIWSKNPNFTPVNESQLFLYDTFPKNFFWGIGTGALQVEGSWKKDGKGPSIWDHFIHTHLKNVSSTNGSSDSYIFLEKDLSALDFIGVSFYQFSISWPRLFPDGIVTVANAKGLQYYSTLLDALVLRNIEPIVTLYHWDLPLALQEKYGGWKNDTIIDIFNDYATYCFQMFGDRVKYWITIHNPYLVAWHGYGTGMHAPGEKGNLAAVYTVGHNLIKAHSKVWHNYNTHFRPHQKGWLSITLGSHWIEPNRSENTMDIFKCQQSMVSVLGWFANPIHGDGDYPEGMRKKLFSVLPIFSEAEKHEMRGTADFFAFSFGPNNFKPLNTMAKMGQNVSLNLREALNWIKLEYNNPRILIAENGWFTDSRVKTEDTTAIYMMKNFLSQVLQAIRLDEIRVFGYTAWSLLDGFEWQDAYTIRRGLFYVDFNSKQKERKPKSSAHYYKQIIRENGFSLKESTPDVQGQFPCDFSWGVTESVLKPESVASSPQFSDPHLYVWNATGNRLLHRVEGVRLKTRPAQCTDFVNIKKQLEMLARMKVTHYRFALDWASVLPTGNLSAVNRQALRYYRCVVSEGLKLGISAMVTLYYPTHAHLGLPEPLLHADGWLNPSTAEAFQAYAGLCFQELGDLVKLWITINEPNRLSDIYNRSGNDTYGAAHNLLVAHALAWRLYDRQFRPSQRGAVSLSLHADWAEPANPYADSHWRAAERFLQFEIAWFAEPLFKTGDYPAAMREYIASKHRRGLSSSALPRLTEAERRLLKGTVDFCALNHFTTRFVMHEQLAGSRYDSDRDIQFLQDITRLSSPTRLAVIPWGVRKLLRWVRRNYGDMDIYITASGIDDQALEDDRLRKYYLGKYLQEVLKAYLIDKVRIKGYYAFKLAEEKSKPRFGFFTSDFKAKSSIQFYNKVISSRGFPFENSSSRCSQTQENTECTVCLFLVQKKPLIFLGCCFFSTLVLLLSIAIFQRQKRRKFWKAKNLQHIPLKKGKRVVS
value_kind: EC50 (nM)
Give bare numbers, in nM.

Respectfully, I request EC50 for each entry included below.
1. Ab0206 (antibody, IgG4, V domains shown) VH: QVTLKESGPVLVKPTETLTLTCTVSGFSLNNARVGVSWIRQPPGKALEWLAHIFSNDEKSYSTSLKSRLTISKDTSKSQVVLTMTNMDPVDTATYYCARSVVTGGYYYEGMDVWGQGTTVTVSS VL: SYVLTQPPSVSVAPGQTARITCGGNNIGSESVHWYQQKPGQAPVLVVYDDSDRPSGIPERFSGSNSGNTATLTISRVEAGDEADYYCQVWDGNSEHVVFGGGTKLTVLG
2. Ab0327 (antibody, IgG4, V domains shown, IgG4 PE) VH: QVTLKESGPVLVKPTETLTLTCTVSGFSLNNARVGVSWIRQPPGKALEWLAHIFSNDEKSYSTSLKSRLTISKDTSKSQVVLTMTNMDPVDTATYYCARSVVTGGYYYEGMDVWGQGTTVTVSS VL: SYVLTQPPSVSVAPGQTARITCGGSNIGSESVHWYQQKPGQAPVLVVYYYSDRPSGIPERFSGSNSGNTATLTISRVEAGDEADYYCQVWEGESDHVVFGGGTKLTVLG

0.69
0.05

Any idea what EC50 was measured for Ab0455 (antibody, IgG4, V domains shown) VH: QVTLKESGPVLVKPTETLTLTCTVSGFSLSYARVGVSWIRQPPGKALEWLAHIFSNDEKSYSTSLKSRLTISKDTSKSQVVLTMTNMDPVDTATYYCARSVVTGGYYYEGMDVWGQGTTVTVSS VL: SYVLTQPPSVSVAPGQTARITCGGSNIGSESVHWYQQKPGQAPVLVVYSESDRPSGIPERFSGSNSGNTATLTISRVEAGDEADYYCQVWEGESDHVVFGGGTKLTVLG ? 0.07
